# TEST: Protein binding in rat plasma
# Type: ADME, cell-free
# MEASUREMENT_PARAMETERS: read-out: PPB (converted)
ENDPOINT_LABEL: fraction unbound

[
  {
    "MOLECULAR_STRING": "CC(=O)CCCCC[C@H](NC(=O)C1CCN(C)CC1)c1ncc(-c2ccc3ccccc3c2)[nH]1",
    "VALUE_MEASURED": 0.11
  }
]

* * *

# TESTED_SYSTEM: Histone deacetylase 1 (Homo sapiens)
# Sequence (Q13547 whole entry): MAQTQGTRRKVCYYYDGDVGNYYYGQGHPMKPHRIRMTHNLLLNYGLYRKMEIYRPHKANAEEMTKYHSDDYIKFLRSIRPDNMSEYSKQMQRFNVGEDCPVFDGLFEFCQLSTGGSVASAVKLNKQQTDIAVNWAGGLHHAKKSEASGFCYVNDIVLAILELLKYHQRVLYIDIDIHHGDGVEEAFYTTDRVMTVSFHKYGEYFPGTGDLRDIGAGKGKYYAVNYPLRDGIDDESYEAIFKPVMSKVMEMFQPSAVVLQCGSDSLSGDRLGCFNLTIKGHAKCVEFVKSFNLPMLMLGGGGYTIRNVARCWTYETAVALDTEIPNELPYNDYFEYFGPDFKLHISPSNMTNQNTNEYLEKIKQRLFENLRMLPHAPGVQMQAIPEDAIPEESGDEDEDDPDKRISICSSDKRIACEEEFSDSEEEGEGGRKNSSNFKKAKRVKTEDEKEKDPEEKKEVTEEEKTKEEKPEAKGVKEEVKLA
The compounds listed here are annotated with their IC50.

[
  {
    "MOLECULAR_STRING": "CCCCC(=O)CCCCC[C@H](NC(=O)C1CCN(C)CC1)c1ncc(-c2ccc3ccccc3c2)[nH]1",
    "IC50": "74 nM"
  },
  {
    "MOLECULAR_STRING": "CC(=O)CCCCC[C@H](NC(=O)CN1CCN(C)CC1)c1ncc(-c2ccccc2)[nH]1",
    "IC50": "500 nM"
  },
  {
    "MOLECULAR_STRING": "CC(=O)CCCCC[C@H](NC(=O)C1CCN(C)CC1)c1ncc(-c2ccc3ccccc3c2)[nH]1",
    "IC50": "11 nM"
  },
  {
    "MOLECULAR_STRING": "CC(=O)CCCCC[C@H](NS(=O)(=O)c1cccc(C#N)c1)c1ncc(-c2ccccc2)[nH]1",
    "IC50": "110 nM"
  },
  {
    "MOLECULAR_STRING": "CC(=O)CCCCC[C@H](NC(=O)C1CCN(C)CC1)c1ncc(-c2csc3ccccc23)[nH]1",
    "IC50": "180 nM"
  }
]
